test system: RARb:RXRa (NR concentration 270 nM, RXRa partner concentration 90 nM); experiment: PBM binding z-score (relative to random genomic background probes); higher = stronger binding; sequences stand for … in GC…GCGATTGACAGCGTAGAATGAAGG
Threshold rule: PBM binding z-score greater than or equal to 2 is 1; below that, 0.

Some solved cases for reference:
entrySequence: TCTTGTAGATCAAGCAGGTTACGAAAGCCTGAGT
assignedClass: 0
--
entrySequence: ACTAGATGGTCAGCTGAGGTCACACACAATTCGG
assignedClass: 1
--
entrySequence: CGTCAAAGTTCAACTAAGGGAACGTAAAGCACGC
assignedClass: 1
--
entrySequence: TAGCCTAGGGCATTGGGCCAGTATAGTACGCATC
assignedClass: 0
--
entrySequence: CCTGCTAGGTCAATGGTCAGCCAAAGCAGCTCGC
assignedClass: 1
--
entrySequence: TCTGCTAGGTCCGTTGGTCAGCTAACGAGCTGCC
assignedClass: 0
--
entrySequence: TCATATAGGTAAAACAGGTGAAAGTCGGCATCTA
assignedClass: 0
--
entrySequence: CCGACTGGGGAATAAGGTTACCATAAGCCAGCCC
assignedClass: 0
--
entrySequence: TCTGCTAGGCCAGTTGGTCAGCTAACGAGCTGCC
assignedClass: 0
--
entrySequence: TCATATAGGTAAAGGTGAAATTCGAACGATATGA
assignedClass: 0

hey, is PBM binding z-score for this one >= 2? TGATTGAGGTTAAAGATCAGGGAACGTGGCGTCG
1

Does CAAACTAGGCCAAGAGGTCAAAGTCCGCTTCCCG have a reported PBM binding z-score of at least 2?
1

Has TCTATTAGTTGAAGGGCAACCGGCGAGTCCGTTT a recorded PBM binding z-score greater than or equal to 2?
0

Given the entry CGAACTAGGTCATTGACAGGACCGTGAATAGTAA , answer whether its PBM binding z-score meets or surpasses 2.
1

Could you tell me if the measured PBM binding z-score of GGAACGAGGGCATTCGAGTTGATAGCTTGGCGAT reaches 2 or more?
0

Test whether the sequence GATACAGGGTCCAGGCCAGAGTACGCGTATTGAT records PBM binding z-score of 2 or higher.
0

Is the recorded value of PBM binding z-score equal to or greater than 2 for this sequence? ATCTCTAGGTAAAGTTCGGTGAAAGATCGATAGA
0

Is PBM binding z-score for CTCGAAATGTCGTGCTCAGGTGAGTATACCAAAC at or above 2?
0

Form field: PBM binding z-score at least 2? Entry: TCTGCTAGGTCTACGATGGTCAGCTAATCTGCTA
0

Reported PBM binding z-score at or above 2? CGTCCAAGATCAGAGAGGTCAGTGAATGCCGAGT
1

Does ATCTCTTGGTAACAAGTTCAGTGAAAGAGAGGAC have a reported PBM binding z-score of at least 2?
0

Kindly determine if PBM binding z-score recorded for CCTTACGGGTCACCAGGTTATAGCACGACGAGCG is above or exactly 2.
1

Can CGAACTAGGTCAGAATAGGACAGTGAAGGATGAT be said to have PBM binding z-score at or above 2?
1

I'd appreciate it if you could say whether TGAATGAGGTTATAATATCAGGGAACGTTGCAAA has PBM binding z-score at least equal to 2.
0

Can TATGCTAGGTCAGTTGGTCAGCTAACGAGCTGCC be said to have PBM binding z-score at or above 2?
1

* * *

tested on: LXRa homodimer (NR concentration 270 nM); assay: PBM binding z-score (relative to random genomic background probes); higher = stronger binding; sequences stand for … in GC…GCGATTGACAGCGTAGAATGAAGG
Class condition met: PBM binding z-score at least 0.4. Class condition not met: PBM binding z-score below 0.4.

entrySequence: TTACCAAGGTAAGCTGAGGTCGTTGATCCAACTC
assignedClass: condition not met

entrySequence: TCTTGTAGATAAAAGGTTAAGAAAGCCGAAGCCT
assignedClass: condition not met

entrySequence: AGTCAAAGTTCATCTAGGTGACGTAAGATATGCT
assignedClass: condition met

entrySequence: GCGACCGGGGCATCAGCAGGTTACCATAACTTAA
assignedClass: condition not met

entrySequence: TCTGGTTGGTCACGGAGGTCACACACGACGGGTA
assignedClass: condition met

entrySequence: CTCGAAAGGTCGTGCTCAGGTGAATATACCAAAC
assignedClass: condition not met

entrySequence: TTACCAAGGTGAAGATCGTTGATCCCTCTGTAGA
assignedClass: condition not met

entrySequence: CGTAGCAGGCCAGGGTCACTCAAGCATTTCGCTT
assignedClass: condition not met

PBM binding z-score >= 0.4 for TCTATTAGTTGATTGGGGCAACCGAAACAGCGGA ?
condition not met

Decide: is the reported value of PBM binding z-score for CCTGGGAGGACAACAGGAGGTCAGAGCTGCCAGA equal to or greater than 0.4?
condition met

Please tell me: is the sequence ACTATCAGTTGACTTAGGGCAACCGATACGACGC at or over 0.4 in terms of PBM binding z-score?
condition not met

I'd appreciate it if you could say whether ACTCGGAGGACACAGGTCAGAGCTACGCCAGTGA has PBM binding z-score at least equal to 0.4.
condition not met

* * *

Readings of PBM binding z-score for the listed sequences
test system: PPARg:RXRa 30nM:10nM, anti-RXR (NR concentration 30 nM, RXRa partner concentration 10 nM); test: PBM binding z-score (relative to random genomic background probes); higher = stronger binding; sequences stand for … in GC…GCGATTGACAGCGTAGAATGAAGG
# output: bare number, no unit

Field: example entries. Status: answers known.
entrySequence: TCATATAGATAAACAGGTGAAAGTCCGTAAGTTA
valueMeasured: 4.51
//
entrySequence: ATATGTAGGTTACATCCGCGTCATTCAGGCTATG
valueMeasured: 1.86
//
entrySequence: ACAGACAGGTGATGACGGTAACTCAGGCTATCAT
valueMeasured: -0.335
//
entrySequence: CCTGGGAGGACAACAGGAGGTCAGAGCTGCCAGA
valueMeasured: -0.563
//
entrySequence: TCGAGTAGGTTACCAATGGGGCATTCGGCTTTCT
valueMeasured: 0.855
//
entrySequence: CCTACTTGGCCAAAGGTCATTGATTCCAATGCTC
valueMeasured: 8.32
//
entrySequence: TAGCCTAGGTCAGATCCGGCCAGTATACGCTATA
valueMeasured: -0.199
//
entrySequence: CGTCCAAGGTCAGCAGGTCAGTGCAAGCGACGTG
valueMeasured: 1.16

Reported PBM binding z-score for PPARg:RXRa 30nM:10nM, anti-RXR (NR concentration 30 nM, RXRa partner concentration 10 nM), given TCATATAGGTAAAAGTGAAAGTCGAACGATATGA ?
4.62

Kindly state the measured PBM binding z-score obtained for AGAACGAGGGCACGCTGAGTAGATAGCAGAGTAG with PPARg:RXRa 30nM:10nM, anti-RXR (NR concentration 30 nM, RXRa partner concentration 10 nM).
0.547

What PBM binding z-score appears in the records for this sequence with PPARg:RXRa 30nM:10nM, anti-RXR (NR concentration 30 nM, RXRa partner concentration 10 nM)? CGAACTAGGTCAGAACAGGACAGTGCAGGATGAT
1.84

Provide the documented PBM binding z-score with PPARg:RXRa 30nM:10nM, anti-RXR (NR concentration 30 nM, RXRa partner concentration 10 nM) as the system for TCTTGTAGATCAATAGAGGTAAAGAAAGTGCGCT
2.57

* * *

Each entry below lists one item and its recorded PBM binding z-score value.
tested on: PPARg homodimer (NR concentration 180 nM); test: PBM binding z-score (relative to random genomic background probes); higher = stronger binding; sequences stand for … in GC…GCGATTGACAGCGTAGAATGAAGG

entrySequence: CCTATTAGTTGACCATAAGGCCAACCGAAGCTCG
valueMeasured: 1.95
//
entrySequence: CGTCCAAGGTCTGAGAGGTCAGTGAATGCCGAGT
valueMeasured: 1.81

State the recorded PBM binding z-score for this entry: ACTCGGAGGACAAAGGTCAGAGGTACGCCAGTGA
3.17

Quick check: PBM binding z-score of CATACAGGTTCAGCTAGGCCAGAGTAGGGACGGC ?
0.268

Could you tell me which PBM binding z-score is on file for TCGAGTAGGTCACCAATGGGGCATTCAGCTTTCT ?
1.71

Looking for the measured PBM binding z-score of TTACCAAGGTGAAAGTTCGTTGATGCACGCCTTG , can you help?
0.78

Can you share its PBM binding z-score? I mean this sequence: TCATATAGGTAAAGAGGTGAAAGTCCGTAAGTTA
1.78

Which PBM binding z-score reading was recorded for the sequence TTACCAAGGTGAAGGCCGTTGATCCCTCTGTAGA ?
0.061

Bench note: what PBM binding z-score did ATCTCTAGGTAACAAGTTCCGTGAAAGAGAGGAC show?
0.831

Entry ATCTCTCGGTAAAGATAGTTCAGTGAATGCAAAT has what PBM binding z-score?
1.08

Param item = ATCGTAAGGTCGACGAGGTGAGTATACACCGTTT ; retrieve measured PBM binding z-score.
0.926

Fill in the blank: the reported PBM binding z-score of AATACAGGGTCACTAGCCCAGAGTAGGTACGAAT is ____.
2.29

Reference source: the supplement of paper PMC6555819
